tested on: Escherichia coli D21f2tolC; experiment: microbe, parasite or virus in culture; conditions: 16 h, read-out: MIC E. coli D21f2tolC, Mueller-Hinton II agar, 16 h at 37° C.
MIC for assorted compounds

compound: O=C(/C=C/c1ccc(Oc2ccccc2)cc1C(F)(F)F)c1c(O)cc(O)cc1O
tested.target: Escherichia coli D21f2tolC
MIC, µg/mL: 1.8
--
compound: Cc1cc(Oc2ccc(F)cc2)ccc1CCC(=O)c1c(O)cc(O)cc1O
tested.target: Escherichia coli D21f2tolC
MIC, µg/mL: 1.1
--
compound: O=C(/C=C/c1ccc(Oc2ccc(Cl)cc2)cc1C(F)(F)F)c1c(O)cc(O)cc1O
tested.target: Escherichia coli D21f2tolC
MIC, µg/mL: 2.5
--
compound: O=C(/C=C/c1ccc(Oc2ccc(F)cc2)cc1)c1c(O)cc(O)c(Cl)c1O
tested.target: Escherichia coli D21f2tolC
MIC, µg/mL: 20
--
compound: O=C(c1c(O)cc(O)cc1O)C1CC1c1ccc(Oc2ccc(F)cc2F)cc1 (centres unmarked)
tested.target: Escherichia coli D21f2tolC
MIC, µg/mL: 2.8
--
compound: O=C(CCc1ccc(Oc2ccc(F)cc2)cc1)c1c(O)cc(O)c(Cl)c1O
tested.target: Escherichia coli D21f2tolC
MIC, µg/mL: 5.2
--
compound: O=C(/C=C/c1ccc(C(F)(F)F)cc1C(F)(F)F)c1c(O)cc(O)cc1O
tested.target: Escherichia coli D21f2tolC
MIC, µg/mL: 8
--
compound: O=C(CCc1ccc(Oc2ccc(Cl)cc2)cc1C(F)(F)F)c1c(O)cc(O)cc1O
tested.target: Escherichia coli D21f2tolC
MIC, µg/mL: 1.7
